Tested on: Septoria tritici
Experimental Protocol: Test G: wheat leaf blotch on wheat seedlings, sprayed the day before inoculation, visual disease rating
Assay type: in vivo
Test Parameters: 40 ppm (marked *); 100 = 100% disease control, 0 = no control
Marks after values point to notes of the source that are not given here.
Measure Name: Test G disease control rating

Sample records with Test G disease control rating:
Given the molecule Cc1nc(Br)c(-c2c(F)cccc2F)n1-c1ccc2ccccc2c1 , what is its reported Test G disease control rating? 96* %

One more molecule: Fc1cccc(F)c1-n1c(Br)nc(Cl)c1-c1ccc(Cl)cc1 96* %

One more molecule: Fc1cc(F)c(-n2c(Br)nc(Br)c2-c2ccc(Cl)cc2)c(F)c1 91* %

One more molecule: COc1ccc(F)c(-c2c(Cl)nc(C)n2-c2cccc(C)c2)c1F 91* %

One more molecule: Cc1nc(Cl)c(-c2c(F)cc(F)cc2F)n1-c1ccc(F)cc1 95* %

One more molecule: COc1cc(F)c(-n2c(Br)nc(Br)c2-c2ccc(Cl)cc2)c(F)c1 95* %

***
Given the molecule Fc1cc(F)c(-n2c(Cl)nc(Br)c2-c2ccc(Cl)cc2)c(F)c1 , what is its reported Test G disease control rating? 95* %

One more molecule: Cc1nc(Br)c(-c2c(F)cccc2F)n1-c1ccc(Cl)c2ccccc12 23* %

One more molecule: Fc1cccc(F)c1-n1cnc(Cl)c1-c1ccc(Cl)cc1 10* %

One more molecule: Fc1cccc(F)c1-n1c(-c2ccc(Cl)cc2)cnc1Cl 0* %

One more molecule: Cc1nc(C)n(-c2ccc(Cl)c(F)c2)c1-c1c(F)ccc(F)c1F 99* %

One more molecule: Cc1nc(Cl)c(-c2c(F)cccc2F)n1-c1ccc(Cl)c2ccccc12 27* %

One more molecule: Fc1cc(F)c(-n2cnc(Br)c2-c2ccc(Cl)cc2)c(F)c1 0* %

One more molecule: COc1cc(F)c(-n2c(Cl)nc(C)c2-c2ccc(Cl)cc2)c(F)c1 93* %

One more molecule: CSc1sc(-c2c(Br)nc(Br)n2-c2ccc(Cl)cc2)cc1Br 3* %

One more molecule: Cc1nc(Cl)n(-c2ccc(Cl)cc2)c1-c1c(F)ccc(F)c1F 99* %
